Assign activity, negative = cell killing to each entry below.
- method description: Drug repurposing screens with cells derived from glioblastoma tumor samples (AID 1345199); note: % is set by controls: 0 for no effect and ±100 for the full control effect; nearly all actives have a fitted effect of over 40% in size
- test parameters: GBM patient neurospheres viability, ATP luminescence, 48 h; at 45.9 µM (top of the series); tumour line D
Inconclusive results are not listed.
Kindly answer with a numeric value in %, unit omitted.

For the molecule COc1ccc(CNCC(O)COc2ccc3[nH]c(=O)ccc3c2)cc1OC (stereo not given) , report activity, negative = cell killing. -26.6

For the molecule NCCCC[C@H](NC(=O)[C@@H]1CCCN1C(=O)[C@@H]1CSSC[C@H](N)C(=O)N[C@@H](Cc2ccccc2)C(=O)N[C@@H](Cc2ccccc2)C(=O)N[C@@H](CCC(N)=O)C(=O)N[C@@H](CC(N)=O)C(=O)N1)C(=O)NCC(N)=O , report activity, negative = cell killing. -4.17

For the molecule CCCCCCCCCCCCCCCC(=O)OC[C@H](O)[C@H]1OC(=O)C(O)=C1O , report activity, negative = cell killing. -24.1

For the molecule c1cnc2cc3c(cc2n1)[C@@H]1CNC[C@H]3C1 , report activity, negative = cell killing. -17.8

For the molecule O=C1O[C@@H]2[C@@H](O)[C@H](O)O[C@@H]2[C@H]1O , report activity, negative = cell killing. -1.84

For the molecule CCC(CN)CC(C)CCNCC(O)CNCC(C)CC(CC)CN (stereo not given) , report activity, negative = cell killing. -7.35

For the molecule CCC(C)(C)OC(=O)N[C@@H](Cc1c[nH]c2ccccc12)C(=O)N[C@@H](CCSC)C(=O)N[C@@H](CC(=O)O)C(=O)N[C@@H](Cc1ccccc1)C(N)=O , report activity, negative = cell killing. -10.3

For the molecule C[C@]12CC[C@@H]3c4ccc(OS(=O)(=O)O)cc4CC[C@H]3[C@@H]1CCC2=O , report activity, negative = cell killing. 4.49

For the molecule O=C(OCCO)c1ccccc1O , report activity, negative = cell killing. 8.11

For the molecule CS(=O)(=O)OCCCNCCCOS(C)(=O)=O , report activity, negative = cell killing. -25.4

====

- test target: Calcium and integrin-binding protein 1 (Homo sapiens) (UniProt Q99828)
- Sequence (Q99828 whole entry, looked up): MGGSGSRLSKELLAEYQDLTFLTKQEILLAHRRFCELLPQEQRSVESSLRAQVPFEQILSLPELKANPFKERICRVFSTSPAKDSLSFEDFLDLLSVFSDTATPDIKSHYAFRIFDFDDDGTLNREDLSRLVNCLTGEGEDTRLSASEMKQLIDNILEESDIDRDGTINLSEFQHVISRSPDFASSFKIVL
- method description: Primary qHTS for Identification of Calcium Integrin Binding Protein 1 (CIB1) Competitor (AID 1508620);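 note: GST tagged CIB1 binding a fluorescein labelled alphaIIb integrin peptide tracer; top concentration of the series differs between compounds; % is set by controls: 0 for no effect and ±100 for the full control effect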
- test parameters: CIB1-GST / FITC-alphaIIb peptide fluorescence polarization; series mostly up to 114 µM
Inconclusive results are not listed. The source made the active and inactive calls. The call rests on the fitted dose curve; in most records, active means well fitted inhibition curve with a large enough effect; inconclusive means small, poorly fitted or top-dose-only effect; inactive means flat fitted curve, though single readings scatter.
observed property: activity change, negative = inhibition

See these solved cases before continuing.
molecule: C=C(C)Cn1c(SCC(=O)c2cccs2)nc2sc3c(c2c1=O)CCCC3
observed property: activity change, negative = inhibition
value reported: inactive
//
molecule: COc1cc2nc(C3CC3)nc(N3CCN(c4ccccc4OC)CC3)c2cc1OC
observed property: activity change, negative = inhibition
value reported: inactive
//
molecule: O=C(NCc1ccccc1-c1ccccc1C(=O)NCCc1ccccn1)OCc1ccccc1
observed property: activity change, negative = inhibition
value reported: inactive
//
molecule: O=C(NC[C@H]1CN(c2ccc(N3CCOCC3=O)cc2)C(=O)O1)c1ccc(Cl)s1
observed property: activity change, negative = inhibition
value reported: inactive
//
molecule: C=CC(=O)N1CCCN(c2cc(NCCC(=O)O)nc(-c3ccccn3)n2)CC1
observed property: activity change, negative = inhibition
value reported: inactive
//
molecule: O=C(Nc1ccc(Cl)cc1)C1CCCN(C(=O)c2cccc(-c3ccco3)c2)C1 (stereo not given)
observed property: activity change, negative = inhibition
value reported: inactive
//
molecule: CC(C)(C[C@@](O)(Cc1cc2ccncc2[nH]1)C(F)(F)F)c1cc(F)ccc1O
observed property: activity change, negative = inhibition
value reported: inactive
//
molecule: CNCCC(c1cccs1)c1ccc(O)c2ccccc12 (stereo not given)
observed property: activity change, negative = inhibition
value reported: inactive

For the molecule Cc1ccc(NC(=O)N2CCN(c3nc(N)nc4sc(-c5cccnc5)nc34)CC2)cc1 , report activity change, negative = inhibition. inactive

For the molecule COc1cccc(OCCCN)c1-c1cc(Nc2cnc(C#N)cn2)n[nH]1 , report activity change, negative = inhibition. inactive

For the molecule NS(=O)(=O)Nc1ncnc(OCCOc2ncc(Br)cn2)c1-c1ccc(Br)cc1 , report activity change, negative = inhibition. inactive

For the molecule C/C=C(\C)C(=O)O[C@H]1C[C@](C)(O)[C@H]2CC=C(C)[C@H]2[C@@H]2OC(=O)[C@H](C)[C@H]21 , report activity change, negative = inhibition. inactive

For the molecule C=C1C(=O)O[C@@H]2C[C@H](C)[C@@H]3CC(=O)C(C)=C3C[C@H]12 , report activity change, negative = inhibition. inactive

For the molecule Cc1ccc(C2(C(=O)N3CCC(n4nc(-c5ccccc5)oc4=O)CC3)CC2)cc1 , report activity change, negative = inhibition. inactive

For the molecule C#CCCCn1cc(-c2cccc3c2N[C@H](C)CC(=O)N3)cn1 , report activity change, negative = inhibition. inactive

For the molecule CCC(C(C)O)n1ncn(-c2ccc(N3CCN(c4ccc(OCC5COC(Cn6cncn6)(c6ccc(F)cc6F)C5)cc4)CC3)cc2)c1=O (stereo not given) , report activity change, negative = inhibition. inactive

For the molecule O=C(Nc1ccc(C(F)(F)F)cn1)N1CCN(c2ncccc2C(F)(F)F)CC1 , report activity change, negative = inhibition. inactive

For the molecule CN(C)S(=O)(=O)c1ccc(NC(=S)N2CCC(C(O)(c3ccccc3)c3ccccc3)CC2)cc1 , report activity change, negative = inhibition. inactive

For the molecule CC(C)(C)c1ccc(C(=O)Nc2cn3cc(-n4ccnc4)ccc3n2)cc1 , report activity change, negative = inhibition. inactive

For the molecule Cc1cc(C)c(S(=O)(=O)n2cc(C)cc2C)c(C)c1 , report activity change, negative = inhibition. inactive

For the molecule CC(C)(O)C1CC(=O)C2(C)C(CCC3(C)C(c4ccoc4)OC(=O)C4OC432)C12CCC(=O)OC2 (stereo not given) , report activity change, negative = inhibition. inactive

For the molecule CCOC(=O)C1(CCOc2ccccc2)CCN(Cc2ccc(O)c(Cl)c2)CC1 , report activity change, negative = inhibition. inactive

For the molecule C=C[C@H](/C=C\c1ccc(O)cc1)c1ccc(O)cc1 , report activity change, negative = inhibition. inactive

For the molecule CC#CCn1c(N2CCCC(N)C2)nc2c1c(=O)n(Cc1nc(C)c3ccccc3n1)c(=O)n2C (stereo not given) , report activity change, negative = inhibition. inactive

For the molecule O=C(NCc1cccs1)c1cc2nc(-c3ccco3)cc(C(F)(F)Cl)n2n1 , report activity change, negative = inhibition. inactive

For the molecule C[C@H](CN(C)C)Oc1nc(Nc2cc3cccc(Cl)c3cn2)cnc1C#N , report activity change, negative = inhibition. inactive

For the molecule CCCCc1c(-c2ccc(OC)cc2)[nH]c2nccnc12 , report activity change, negative = inhibition. inactive

For the molecule Cc1ccccc1C(C(=O)NC1CCCCC1)N(C(=O)Cn1cnc2ccccc21)c1cccc(F)c1 (stereo not given) , report activity change, negative = inhibition. inactive

For the molecule CC(C)(C)c1ccc2c(c1)CC[C@H]2NC(=O)Nc1cccc2[nH]ncc12 , report activity change, negative = inhibition. inactive

For the molecule Cc1cc(C)c(-n2cc(C)c3c(Cl)nc(C)nc32)c(C)c1 , report activity change, negative = inhibition. inactive

For the molecule C#CCNCc1cc2cc(OCc3ccccc3)ccc2[nH]1 , report activity change, negative = inhibition. inactive

For the molecule O=C(NCCN1CCC(n2c(=O)[nH]c3ccccc32)CC1)c1cc2cc(F)ccc2[nH]1 , report activity change, negative = inhibition. inactive

For the molecule Cc1ccc(-c2ncc[nH]2)cc1NC(=O)c1ccc(OCc2ccccn2)cc1 , report activity change, negative = inhibition. inactive

For the molecule CC[C@@H](C)Nc1cc(C(=O)NC2CC3CCC(C2)N3c2ccc(C(=O)C3CC3)cn2)c(C)cc1C(N)=O (stereo not given in full) , report activity change, negative = inhibition. inactive
